- Test system: 624824-186-R-J3-PDC multicell spheroids, viability
- test.details: Anticancer human tumor 624824-186-R-J3-PDC patient-derived colon adenocarcinoma cell line growth inhibition [PI3K]
- condition.label: second compound 0.1 µM; first compound 0.1 µM; stronger effect = lower value

molecule	viability, T/C [%]
Cn1nccc1Nc1nccc(-c2ccn(C(CO)c3ccc(Cl)c(F)c3)c(=O)c2)n1 (stereo unspecified) + CC(Nc1ccc2c(c1)OCCn1cc(N3C(=O)OCC3C(F)F)nc1-2)C(N)=O	95
Cn1ncnc1[C@H]1c2n[nH]c(=O)c3cc(F)cc(c23)N[C@@H]1c1ccc(F)cc1 + CC(Nc1ccc2c(c1)OCCn1cc(N3C(=O)OCC3C(F)F)nc1-2)C(N)=O	106
CNC(=O)c1ccc(N2C(=S)N(c3ccc(C#N)c(C(F)(F)F)c3)C(=O)C2(C)C)cc1F + Cc1nc(NC(=O)N2CCCC2C(N)=O)sc1-c1ccnc(C(C)(C)C(F)(F)F)c1	100
CC(C)n1nc(-c2ccc3oc(N)nc3c2)c2c(N)ncnc21 + CC(Nc1ncnc2nc[nH]c12)c1cc2cccc(Cl)c2c(=O)n1-c1ccccc1	69
CNC(=O)c1ccc(N2C(=S)N(c3ccc(C#N)c(C(F)(F)F)c3)C(=O)C2(C)C)cc1F + CC(Nc1ccc2c(c1)OCCn1cc(N3C(=O)OCC3C(F)F)nc1-2)C(N)=O	101
Cn1ncnc1[C@H]1c2n[nH]c(=O)c3cc(F)cc(c23)N[C@@H]1c1ccc(F)cc1 + CC(Nc1ncnc2nc[nH]c12)c1cc2cccc(Cl)c2c(=O)n1-c1ccccc1	120

====

- System: 624824-186-R-J3-PDC multicell spheroids, viability
- test.details: Anticancer human tumor 624824-186-R-J3-PDC cell line growth inhibition [PI3K];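 further: spheroids exposed to agents for seven days before luminescence read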
- condition.label: curve of first compound; second compound 0.1 µM
Recorded IC50 by entry

compound	IC50
Cn1nccc1Nc1nccc(-c2ccn(C(CO)c3ccc(Cl)c(F)c3)c(=O)c2)n1 (stereo unspecified) + CC(Nc1ccc2c(c1)OCCn1cc(N3C(=O)OCC3C(F)F)nc1-2)C(N)=O	1.27 µM
C=CC(=O)N1CCN(c2nc(=O)n(-c3c(C)ccnc3C(C)C)c3nc(-c4c(O)cccc4F)c(F)cc23)C(C)C1 (stereo unspecified) + Cc1nc(NC(=O)N2CCCC2C(N)=O)sc1-c1ccnc(C(C)(C)C(F)(F)F)c1	> 10 µM
Cn1ncnc1[C@H]1c2n[nH]c(=O)c3cc(F)cc(c23)N[C@@H]1c1ccc(F)cc1 + COc1c(OCCCN2CCOCC2)ccc2c3n(c(=NC(=O)c4cnc(N)nc4)nc12)CCN3	> 0.1 µM
CNC(=O)c1ccc(N2C(=S)N(c3ccc(C#N)c(C(F)(F)F)c3)C(=O)C2(C)C)cc1F + CC(Nc1ncnc2nc[nH]c12)c1cc2cccc(Cl)c2c(=O)n1-c1ccccc1	> 10 µM
CC(=O)c1c(C)c2cnc(Nc3ccc(N4CCNCC4)cn3)nc2n(C2CCCC2)c1=O + CC(Nc1ncnc2nc[nH]c12)c1cc2cccc(Cl)c2c(=O)n1-c1ccccc1	> 0.1 µM
CCN1CCN(Cc2ccc(Nc3ncc(F)c(-c4cc(F)c5nc(C)n(C(C)C)c5c4)n3)nc2)CC1 + CC(Nc1ncnc2nc[nH]c12)c1cc2cccc(Cl)c2c(=O)n1-c1ccccc1	> 1 µM
CC(C)n1nc(-c2ccc3oc(N)nc3c2)c2c(N)ncnc21 + COc1c(OCCCN2CCOCC2)ccc2c3n(c(=NC(=O)c4cnc(N)nc4)nc12)CCN3	0.0292 µM
C#Cc1c(F)ccc2cc(O)cc(-c3ncc4c(N5CC6CCC(C5)N6)nc(OCC56CCCN5CC(F)C6)nc4c3F)c12 (stereo unspecified) + CC(Nc1ncnc2nc[nH]c12)c1cc2cccc(Cl)c2c(=O)n1-c1ccccc1	> 10 µM
CC(C)n1nc(-c2ccc3oc(N)nc3c2)c2c(N)ncnc21 + CC(Nc1ccc2c(c1)OCCn1cc(N3C(=O)OCC3C(F)F)nc1-2)C(N)=O	0.0811 µM
CCN1CCN(Cc2ccc(Nc3ncc(F)c(-c4cc(F)c5nc(C)n(C(C)C)c5c4)n3)nc2)CC1 + Cc1nc(NC(=O)N2CCCC2C(N)=O)sc1-c1ccnc(C(C)(C)C(F)(F)F)c1	> 1 µM
C#Cc1c(F)ccc2cc(O)cc(-c3ncc4c(N5CC6CCC(C5)N6)nc(OCC56CCCN5CC(F)C6)nc4c3F)c12 (stereo unspecified) + COc1c(OCCCN2CCOCC2)ccc2c3n(c(=NC(=O)c4cnc(N)nc4)nc12)CCN3	> 10 µM
C=CC(=O)N1CCN(c2nc(=O)n(-c3c(C)ccnc3C(C)C)c3nc(-c4c(O)cccc4F)c(F)cc23)C(C)C1 (stereo unspecified) + CC(Nc1ccc2c(c1)OCCn1cc(N3C(=O)OCC3C(F)F)nc1-2)C(N)=O	> 10 µM
CNC(=O)c1ccc(N2C(=S)N(c3ccc(C#N)c(C(F)(F)F)c3)C(=O)C2(C)C)cc1F + COc1c(OCCCN2CCOCC2)ccc2c3n(c(=NC(=O)c4cnc(N)nc4)nc12)CCN3	> 10 µM
Cn1ncnc1[C@H]1c2n[nH]c(=O)c3cc(F)cc(c23)N[C@@H]1c1ccc(F)cc1 + CC(Nc1ncnc2nc[nH]c12)c1cc2cccc(Cl)c2c(=O)n1-c1ccccc1	> 0.1 µM
C[C@@H](NC(=O)c1ncnc(N)c1Cl)c1ncc(C(=O)Nc2cc(C(F)(F)F)c(Cl)cn2)s1 + COc1c(OCCCN2CCOCC2)ccc2c3n(c(=NC(=O)c4cnc(N)nc4)nc12)CCN3	4.44 µM
CC(Cn1ccc(-c2ccc(C#N)c(Cl)c2)n1)NC(=O)c1cc(C(C)O)[nH]n1 (stereo unspecified) + COc1c(OCCCN2CCOCC2)ccc2c3n(c(=NC(=O)c4cnc(N)nc4)nc12)CCN3	> 10 µM
CC1(C)CCC(CN2CCN(c3ccc(C(=O)NS(=O)(=O)c4ccc(NCC5CCOCC5)c([N+](=O)[O-])c4)c(Oc4cnc5[nH]ccc5c4)c3)CC2)=C(c2ccc(Cl)cc2)C1 + COc1c(OCCCN2CCOCC2)ccc2c3n(c(=NC(=O)c4cnc(N)nc4)nc12)CCN3	> 10 µM
CC(Cn1ccc(-c2ccc(C#N)c(Cl)c2)n1)NC(=O)c1cc(C(C)O)[nH]n1 (stereo unspecified) + CC(Nc1ccc2c(c1)OCCn1cc(N3C(=O)OCC3C(F)F)nc1-2)C(N)=O	> 10 µM
C#Cc1c(F)ccc2cc(O)cc(-c3ncc4c(N5CC6CCC(C5)N6)nc(OCC56CCCN5CC(F)C6)nc4c3F)c12 (stereo unspecified) + CC(Nc1ccc2c(c1)OCCn1cc(N3C(=O)OCC3C(F)F)nc1-2)C(N)=O	> 10 µM
Cn1nccc1Nc1nccc(-c2ccn(C(CO)c3ccc(Cl)c(F)c3)c(=O)c2)n1 (stereo unspecified) + CC(Nc1ncnc2nc[nH]c12)c1cc2cccc(Cl)c2c(=O)n1-c1ccccc1	> 10 µM
CC(=O)c1c(C)c2cnc(Nc3ccc(N4CCNCC4)cn3)nc2n(C2CCCC2)c1=O + CC(Nc1ccc2c(c1)OCCn1cc(N3C(=O)OCC3C(F)F)nc1-2)C(N)=O	> 0.1 µM
